# Lookup of reported recombinant barcode read abundance (log10) keyed by entry
PROCEDURE_TEXT: recombinant barcode read abundance after kanamycin selection (control-corrected) (log10(CPM+1)); higher = more efficient recombination; sequences stand for … in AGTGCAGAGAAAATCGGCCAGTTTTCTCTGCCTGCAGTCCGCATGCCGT…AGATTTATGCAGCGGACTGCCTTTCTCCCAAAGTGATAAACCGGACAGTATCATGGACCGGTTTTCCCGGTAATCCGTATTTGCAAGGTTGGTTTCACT; site = the 11-nt target
READOUT_TYPE: recombinant barcode read abundance (log10)

CTTCGAGCTTGGGTTCTAACCTGTTGCTG (site CTTCGAGCTCC)	0.193
ACGTCGTCTTGGGTTCTAACCTGTTGCCT (site ATGTCGTCTAG)	0.0865
AAGGTCACTTGGGTTCTAACCTGTTGCTG (site GTACATCCTAC)	0.0968
GAGCAACCTTGGGTTCTAACCTGTTGCCG (site GAGCCACCTTG)	0.017
GGGCCTTCTTGGGTTCTAACCTGTTGCAT (site GGGGCTTCTAT)	0.31
GAGAGGACTTGGGTTCTAACCTGTTGCTT (site GATAGAACTAA)	0.0753
CGTTAACCTTGGGTTCTAACCTGTTGCGT (site CGTTAACCTAC)	1.37
CTAAGAACTTGGGTTCTAACCTGTTGCCT (site CTAAGAACTAT)	0
TCACACTCTTGGGTTCTAACCTGTTGCCT (site TCCCACTCTAG)	0.111
CGTTCTACTTGGGTTCTAACCTGTTGCCT (site CGTTCGACTAG)	0.0414

---

PROCEDURE_TEXT: recombinant barcode read abundance after kanamycin selection (control-corrected) (log10(CPM+1)); higher = more efficient recombination; sequences stand for … in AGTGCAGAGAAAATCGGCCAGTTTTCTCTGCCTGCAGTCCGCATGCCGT…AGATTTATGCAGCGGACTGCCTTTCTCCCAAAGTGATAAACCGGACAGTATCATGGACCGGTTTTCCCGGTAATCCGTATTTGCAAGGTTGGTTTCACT; site = the 11-nt target
# Lookup of reported recombinant barcode read abundance (log10) keyed by entry
READOUT_TYPE: recombinant barcode read abundance (log10)

GCGGGATCTTGGGTTCTAACCTGTTGCCT (site CCGGGATCTAG)	0.258
TTCAATTCTTGGGTTCTAACCTGTTGCTT (site TATAATTCTAA)	0.00963
GTTCAACCTTGGGTTCTAACCTGTTGCCT (site GTTCAACCTAG)	1.48
CACTGGTCTTGGGTTCTAACCTGTTGCCT (site CACTGATCTAG)	0.532
AGGAGCCCTTGGGTTCTAACCTGTTGCCA (site AGGAGCCCTAG)	0.408

---

PROCEDURE_TEXT: recombinant barcode read abundance after kanamycin selection (control-corrected) (log10(CPM+1)); higher = more efficient recombination; sequences stand for … in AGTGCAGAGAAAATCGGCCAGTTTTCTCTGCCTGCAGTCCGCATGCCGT…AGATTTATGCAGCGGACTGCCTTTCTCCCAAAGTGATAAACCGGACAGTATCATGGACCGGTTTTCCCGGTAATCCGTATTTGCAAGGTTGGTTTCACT; site = the 11-nt target
# recombinant barcode read abundance (log10) >= 0.1 gives label 1, anything below gives label 0

ACGATCGCTTGGGTTCTAACCTGTTGCCT (site ACGACCGCTAG)	label 1
AGTCTGGCTTGGGTTCTAACCTGTTGCCT (site TGTCTGGCTAG)	label 1
GATGATACTTGGGTTCTAACCTGTTGCGT (site GTTTATACTAC)	label 0
GTCCGTCCTTGGGTTCTAACCTGTTGCCT (site GTCCGTCCTAT)	label 0
CGACACTCTTGGGTTCTAACCTGTTGCCT (site CTACACTCTAG)	label 0
TTAGCCTCTTGGGTTCTAACCTGTTGCCT (site TTAGCTTCTAG)	label 0
TAGCGGACTTGGGTTCTAACCTGTTGCCT (site TAGCAGACTAG)	label 1
AAGTCTCCTTGGGTTCTAACCTGTTGCAG (site AAGTCTCCTCT)	label 1
CTGAGGCCTTGGGTTCTAACCTGTTGCCT (site GTGAGGCCTAG)	label 1
ACTTAGCCTTGGGTTCTAACCTGTTGCAT (site ACTTAGCCTAT)	label 1

---

PROCEDURE_TEXT: recombinant UMI read abundance after kanamycin selection (control-corrected) (log10(CPM+1)); higher = more efficient recombination; extreme values may be limits of the assay; sequences stand for … in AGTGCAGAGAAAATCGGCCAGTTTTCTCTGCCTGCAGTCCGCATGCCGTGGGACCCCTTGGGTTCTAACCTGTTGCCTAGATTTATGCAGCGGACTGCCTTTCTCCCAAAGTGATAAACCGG…AGGTTGGTTTCACT; site = the 11-nt donor
READOUT_TYPE: recombinant UMI read abundance (log10)

ACAGTATCATGGACCGGTTTTCCCGGTAATCCGTATTTGCC (site ACAGTATCTTG)	1.9
CCTAATCCATGGACCGGTTTTCCCGGTAATCCGTATTTGGC (site CCTAATCCTGC)	0
AGCCTAGCATGGACCGGTTTTCCCGGTAATCCGTATTTGAT (site AGCCTAGCTAT)	0.0107
CTTCTACCATGGACCGGTTTTCCCGGTAATCCGTATTTGCT (site CTGCTACCTAG)	0
ACGGCCTCATGGACCGGTTTTCCCGGTAATCCGTATTTGGG (site ACGGCCTCTCC)	0.0343
ATTCGCTCATGGACCGGTTTTCCCGGTAATCCGTATTTGAA (site ATTCGCTCTTT)	0.571
GTTAGAACATGGACCGGTTTTCCCGGTAATCCGTATTTGAC (site GTTAGAACTGG)	0
TGAAAGGCATGGACCGGTTTTCCCGGTAATCCGTATTTGCT (site TGAAAGGCTAG)	2.34
AGGAAGACATGGACCGGTTTTCCCGGTAATCCGTATTTGAC (site AGGAAGACTTG)	0.571
AAGTAGACATGGACCGGTTTTCCCGGTAATCCGTATTTGCA (site AGGAAGACTTG)	0.52
AGGGAGACATGGACCGGTTTTCCCGGTAATCCGTATTTGCA (site AGGGAGACTTG)	2.5
TAGAAATCATGGACCGGTTTTCCCGGTAATCCGTATTTGCG (site TAGAAATCTCG)	2.05
GGTTCAACATGGACCGGTTTTCCCGGTAATCCGTATTTGTA (site GGTTCAACTTA)	0.00797
CGAAATCCATGGACCGGTTTTCCCGGTAATCCGTATTTGTT (site CGGAATCCTAA)	0
CGAACACCATGGACCGGTTTTCCCGGTAATCCGTATTTGCT (site CGATCATCTAG)	0
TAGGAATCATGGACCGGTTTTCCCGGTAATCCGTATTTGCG (site TACGAATCTCG)	1.28
GGTTTGGCATGGACCGGTTTTCCCGGTAATCCGTATTTGCT (site TGTTTGGCTAG)	0.00406
CTAGGTACATGGACCGGTTTTCCCGGTAATCCGTATTTGAC (site GTAGGTACTGT)	0
TGGTTCCCATGGACCGGTTTTCCCGGTAATCCGTATTTGTG (site AGGTTCCCTCA)	0.0205
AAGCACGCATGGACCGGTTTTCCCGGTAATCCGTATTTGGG (site AAGCAGGCTCC)	0.0132
TCTGGATCATGGACCGGTTTTCCCGGTAATCCGTATTTGCT (site TCTGGATCTAG)	0
CGAGGACCATGGACCGGTTTTCCCGGTAATCCGTATTTGGC (site CGAGGACCTGC)	0
CAAGCGCCATGGACCGGTTTTCCCGGTAATCCGTATTTGTT (site CAAGCGCCTGA)	1.75
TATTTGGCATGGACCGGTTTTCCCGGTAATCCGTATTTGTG (site TATTCGGCTCA)	0.0142
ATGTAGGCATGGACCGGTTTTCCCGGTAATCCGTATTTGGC (site ATGTAGGCTGC)	2.4
AGCAAGGCATGGACCGGTTTTCCCGGTAATCCGTATTTGCT (site AGCAAGGCTAG)	2.61
GAATATCCATGGACCGGTTTTCCCGGTAATCCGTATTTGCT (site GACTATCCTAG)	0
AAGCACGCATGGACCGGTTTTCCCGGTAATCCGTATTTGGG (site AAGCGCGCTCC)	0.0213
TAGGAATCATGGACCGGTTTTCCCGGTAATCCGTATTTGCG (site TAGGAAGCTCG)	0.419
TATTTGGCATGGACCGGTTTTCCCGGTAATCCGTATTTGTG (site TATTTGGCTCT)	0.0103
CAATGGCCATGGACCGGTTTTCCCGGTAATCCGTATTTGCG (site CAATGGCCTCG)	0.00456
GTTAGAACATGGACCGGTTTTCCCGGTAATCCGTATTTGGA (site GTTAGAACTAC)	0.00435
CCCTTGGCATGGACCGGTTTTCCCGGTAATCCGTATTTGGA (site CACTTGGCTTC)	0.0394
ATCGAAGCATGGACCGGTTTTCCCGGTAATCCGTATTTGAG (site ATCGAAGCTCT)	2.1
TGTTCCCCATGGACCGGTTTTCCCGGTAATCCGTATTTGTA (site TATTCCCCTTA)	0.0123
CACATGGCATGGACCGGTTTTCCCGGTAATCCGTATTTGGA (site CACCTGGCTTC)	0.346
